# assay-target: filamentous actin (F-actin) from rabbit skeletal muscle (rabbit, UniProt P68135 1-377)
# experimental-protocol: co-sedimentation
test-readout: co-sedimentation pellet (% of WT)

IN: Please report the recorded co-sedimentation pellet (% of WT) for talin 2300–2541 V2444D (domain or fragment, mouse, UniProt P26039 2300-2541, looked up) DPTVIAENELLGAAAAIEAAAKKLEQLKPRAKPKEADESLNFEEQILEAAKSIAAATSALVKAASAAQRELVAQGKVGAIPANALDDGQWSQGLISAARMVAAATNNLCEAANAAVQGHASQEKLISSAKQVAASTAQLLVACKDKADQDSEAMKRLQAAGNAVKRASDNLVKAAQKAAAFEDQENETVVVKEKMVGGIAQIIAAQEEMLRKERELEEARKKLAQIRQQQYKFLPSELRDEH .
OUT: 54 % of WT

IN: Can you share its co-sedimentation pellet (% of WT)? I mean this binder: talin 2300–2541 L2309A/L2323A (domain or fragment, mouse, UniProt P26039 2300-2541, looked up) DPTVIAENEALGAAAAIEAAAKKAEQLKPRAKPKEADESLNFEEQILEAAKSIAAATSALVKAASAAQRELVAQGKVGAIPANALDDGQWSQGLISAARMVAAATNNLCEAANAAVQGHASQEKLISSAKQVAASTAQLLVACKVKADQDSEAMKRLQAAGNAVKRASDNLVKAAQKAAAFEDQENETVVVKEKMVGGIAQIIAAQEEMLRKERELEEARKKLAQIRQQQYKFLPSELRDEH
OUT: 154 % of WT

IN: If you can, please state the reported co-sedimentation pellet (% of WT) value of talin 2300–2541 R2519A (domain or fragment) DPTVIAENELLGAAAAIEAAAKKLEQLKPRAKPKEADESLNFEEQILEAAKSIAAATSALVKAASAAQRELVAQGKVGAIPANALDDGQWSQGLISAARMVAAATNNLCEAANAAVQGHASQEKLISSAKQVAASTAQLLVACKVKADQDSEAMKRLQAAGNAVKRASDNLVKAAQKAAAFEDQENETVVVKEKMVGGIAQIIAAQEEMLRKERELEEAAKKLAQIRQQQYKFLPSELRDEH .
OUT: 37 % of WT

IN: What value of measured co-sedimentation pellet (% of WT) is listed for talin 2300–2541 K2445D (domain or fragment, mouse, UniProt P26039 2300-2541, looked up) DPTVIAENELLGAAAAIEAAAKKLEQLKPRAKPKEADESLNFEEQILEAAKSIAAATSALVKAASAAQRELVAQGKVGAIPANALDDGQWSQGLISAARMVAAATNNLCEAANAAVQGHASQEKLISSAKQVAASTAQLLVACKVDADQDSEAMKRLQAAGNAVKRASDNLVKAAQKAAAFEDQENETVVVKEKMVGGIAQIIAAQEEMLRKERELEEARKKLAQIRQQQYKFLPSELRDEH ?
OUT: 48 % of WT

IN: Endpoint output: co-sedimentation pellet (% of WT) of talin 2300–2541 R2526G (domain or fragment) DPTVIAENELLGAAAAIEAAAKKLEQLKPRAKPKEADESLNFEEQILEAAKSIAAATSALVKAASAAQRELVAQGKVGAIPANALDDGQWSQGLISAARMVAAATNNLCEAANAAVQGHASQEKLISSAKQVAASTAQLLVACKVKADQDSEAMKRLQAAGNAVKRASDNLVKAAQKAAAFEDQENETVVVKEKMVGGIAQIIAAQEEMLRKERELEEARKKLAQIGQQQYKFLPSELRDEH . Value?
OUT: 33 % of WT

IN: Bench note: what co-sedimentation pellet (% of WT) did talin 2300–2541 A2518D (domain or fragment) DPTVIAENELLGAAAAIEAAAKKLEQLKPRAKPKEADESLNFEEQILEAAKSIAAATSALVKAASAAQRELVAQGKVGAIPANALDDGQWSQGLISAARMVAAATNNLCEAANAAVQGHASQEKLISSAKQVAASTAQLLVACKVKADQDSEAMKRLQAAGNAVKRASDNLVKAAQKAAAFEDQENETVVVKEKMVGGIAQIIAAQEEMLRKERELEEDRKKLAQIRQQQYKFLPSELRDEH show?
OUT: 43 % of WT

IN: co-sedimentation pellet (% of WT) for talin 2300–2541 I2316A (domain or fragment, mouse, UniProt P26039 2300-2541, looked up) DPTVIAENELLGAAAAAEAAAKKLEQLKPRAKPKEADESLNFEEQILEAAKSIAAATSALVKAASAAQRELVAQGKVGAIPANALDDGQWSQGLISAARMVAAATNNLCEAANAAVQGHASQEKLISSAKQVAASTAQLLVACKVKADQDSEAMKRLQAAGNAVKRASDNLVKAAQKAAAFEDQENETVVVKEKMVGGIAQIIAAQEEMLRKERELEEARKKLAQIRQQQYKFLPSELRDEH ?
OUT: 96 % of WT

IN: Would you kindly share the measured co-sedimentation pellet (% of WT) for talin 2300–2541 I2316A/L2323A (domain or fragment, mouse, UniProt P26039 2300-2541, looked up) DPTVIAENELLGAAAAAEAAAKKAEQLKPRAKPKEADESLNFEEQILEAAKSIAAATSALVKAASAAQRELVAQGKVGAIPANALDDGQWSQGLISAARMVAAATNNLCEAANAAVQGHASQEKLISSAKQVAASTAQLLVACKVKADQDSEAMKRLQAAGNAVKRASDNLVKAAQKAAAFEDQENETVVVKEKMVGGIAQIIAAQEEMLRKERELEEARKKLAQIRQQQYKFLPSELRDEH ?
OUT: 135 % of WT

Further cases:
IN: What value of measured co-sedimentation pellet (% of WT) is listed for talin 2300–2541 Q2437E (domain or fragment, mouse, UniProt P26039 2300-2541, looked up) DPTVIAENELLGAAAAIEAAAKKLEQLKPRAKPKEADESLNFEEQILEAAKSIAAATSALVKAASAAQRELVAQGKVGAIPANALDDGQWSQGLISAARMVAAATNNLCEAANAAVQGHASQEKLISSAKQVAASTAELLVACKVKADQDSEAMKRLQAAGNAVKRASDNLVKAAQKAAAFEDQENETVVVKEKMVGGIAQIIAAQEEMLRKERELEEARKKLAQIRQQQYKFLPSELRDEH ?
OUT: 62 % of WT

IN: Could you tell me which co-sedimentation pellet (% of WT) is on file for talin 2300–2541 D2385K/D2386N/D2447N (domain or fragment, mouse, UniProt P26039 2300-2541, looked up) DPTVIAENELLGAAAAIEAAAKKLEQLKPRAKPKEADESLNFEEQILEAAKSIAAATSALVKAASAAQRELVAQGKVGAIPANALKNGQWSQGLISAARMVAAATNNLCEAANAAVQGHASQEKLISSAKQVAASTAQLLVACKVKANQDSEAMKRLQAAGNAVKRASDNLVKAAQKAAAFEDQENETVVVKEKMVGGIAQIIAAQEEMLRKERELEEARKKLAQIRQQQYKFLPSELRDEH ?
OUT: 138 % of WT

IN: Consider the binder shown here: talin 2300–2541 L2515D (domain or fragment) DPTVIAENELLGAAAAIEAAAKKLEQLKPRAKPKEADESLNFEEQILEAAKSIAAATSALVKAASAAQRELVAQGKVGAIPANALDDGQWSQGLISAARMVAAATNNLCEAANAAVQGHASQEKLISSAKQVAASTAQLLVACKVKADQDSEAMKRLQAAGNAVKRASDNLVKAAQKAAAFEDQENETVVVKEKMVGGIAQIIAAQEEMLRKEREDEEARKKLAQIRQQQYKFLPSELRDEH What is its recorded co-sedimentation pellet (% of WT)?
OUT: 36 % of WT

The values you see were collected from paper PMC2168396.
